Target: KRAS G12D (Homo sapiens, UniProt P01116, G12D)
Sequence (P01116 1-188 isoform P01116-2 G12D): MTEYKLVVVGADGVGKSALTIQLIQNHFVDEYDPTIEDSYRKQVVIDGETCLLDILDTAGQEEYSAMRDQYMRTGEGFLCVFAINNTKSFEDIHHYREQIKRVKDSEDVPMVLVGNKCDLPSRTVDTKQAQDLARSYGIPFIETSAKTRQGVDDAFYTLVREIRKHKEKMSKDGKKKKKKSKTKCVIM
Assay: HTRF KRAS-SOS1 interaction assay, KRAS G12D
Conditions: binned ≤2 μM / >2 μM, read-out: Inhibition of KRAS G12D (IC50)
# IC50 values compiled below

Field: example entries. Status: answers known.
>  <MOLECULE>
C#CC(F)(F)[C@H](c1cccnc1N)N1CCOc2c(Cl)c(-c3ccc(F)c4sc(N)c(C#N)c34)c(F)c3nc(OC[C@@]45CCCN4C[C@H](F)C5)nc1c23 [Compound 867]

>  <IC50>
≤ 2000 nM

$$$$
>  <MOLECULE>
Cc1c(F)c(N)cc(-c2nc3c4c(nc(OC[C@@H]5CCCN5C)nc4c2F)N([C@H](C)c2cccnc2N)CCO3)c1C(F)(F)F (single isomer, unassigned) [Compound 695]

>  <IC50>
≤ 2000 nM

$$$$

Query block: Test system KRAS G12D (Homo sapiens, UniProt P01116, G12D); read-out IC50; what value for CCO/N=C(\C)CCC[C@H](c1cccnc1N)N1CCOc2c(C(F)(F)F)c(-c3ccc(F)c4sc(N)c(C#N)c34)c(F)c3nc(OC[C@@]45CCCN4C[C@H](F)C5)nc1c23 [Compound 854] ?
Result block: ≤ 2000 nM

* * *

Biological target: KRAS G12S (Homo sapiens, UniProt P01116, G12S)
Sequence (P01116 1-188 isoform P01116-2 G12S): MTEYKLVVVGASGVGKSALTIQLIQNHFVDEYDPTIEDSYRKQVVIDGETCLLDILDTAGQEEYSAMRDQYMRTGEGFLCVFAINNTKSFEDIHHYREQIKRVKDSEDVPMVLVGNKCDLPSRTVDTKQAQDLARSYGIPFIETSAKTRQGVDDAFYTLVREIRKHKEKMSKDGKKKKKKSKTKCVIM
Assay: HTRF KRAS-SOS1 interaction assay, KRAS G12S
Details: binned ≤2 μM / >2 μM, read-out: Inhibition of KRAS G12S (IC50)
pIC50: −log10 of the molar value.
ATTRIBUTE_MEASURED: pIC50

Field: example entries. Status: answers known.
>  <COMPOUND>
C=CC[C@H](c1cccnc1N)N1C[C@H](C)Oc2nc(-c3cc(N)c(F)c(C)c3C(F)(F)F)c(F)c3nc(OC[C@@]45CCCN4C[C@H](F)C5)nc1c23 (single isomer, unassigned)

>  <ATTRIBUTE_MEASURED>
pIC50

>  <ASSAY_VALUE>
≥ 5.70

$$$$
>  <COMPOUND>
C[C@H](c1cccnc1N)N1CCOc2c(C(F)(F)F)c(-c3ccc(F)c4sc(N)c(C#N)c34)c(F)c3nc(OC[C@@]45CCCN4CC(C#N)C5)nc1c23 (some centres unmarked) [Compound 852]

>  <ATTRIBUTE_MEASURED>
pIC50

>  <ASSAY_VALUE>
< 5.70

$$$$
>  <COMPOUND>
N#Cc1c(N)sc2c(F)ccc(-c3c(C(F)(F)F)c4c5c(nc(OC[C@@]67CCCN6C[C@H](F)C7)nc5c3F)N([C@H](CC3CC3)c3cccnc3N)CCO4)c12 (single isomer, unassigned)

>  <ATTRIBUTE_MEASURED>
pIC50

>  <ASSAY_VALUE>
≥ 5.70

$$$$
>  <COMPOUND>
C[C@H](c1cccnc1N)N1CCOc2c(Cl)c(-c3ccc(F)c4sc(N)c(C#N)c34)c(F)c3nc(OC[C@@]45CCCN4CC(=NOCC(F)(F)F)C5)nc1c23 (mixture of isomers)

>  <ATTRIBUTE_MEASURED>
pIC50

>  <ASSAY_VALUE>
≥ 5.70

$$$$

Then there is this compound:
Query block: Query: pIC50; subject: C[C@H](c1cccnc1N)N1CCOc2c(Cl)c(-c3ccc(F)c4sc(N)c(C#N)c34)c(F)c3nc(OCC45CCCC4CCC5)nc1c23 (single isomer, unassigned) [Compound 674]
Result block: < 5.70

Data origin: patent US12668600B2
